Reference for the values: patent US20190248902A1

System tested: T1, human ASGR-1 (human, UniProt P07306 1-291)
T1 construct: Stably expressed on CHO-S cells (CHO-S:huASGR-1); The method text says human or mouse ASGR-1 cells were used; also called huASGR-1; hASGR-1
T1 sequence: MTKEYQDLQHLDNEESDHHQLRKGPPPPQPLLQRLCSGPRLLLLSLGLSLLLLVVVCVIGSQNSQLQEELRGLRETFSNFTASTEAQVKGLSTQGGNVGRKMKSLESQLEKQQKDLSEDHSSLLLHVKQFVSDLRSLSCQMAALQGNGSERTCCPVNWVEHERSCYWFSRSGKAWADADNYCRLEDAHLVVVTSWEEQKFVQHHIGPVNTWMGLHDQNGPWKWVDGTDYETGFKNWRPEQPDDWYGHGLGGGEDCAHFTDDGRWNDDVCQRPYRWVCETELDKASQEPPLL
Test: FACS ligand blocking on CHO-S ASGR-1 cells; competitor biotinylated asialofetuin
Readout name: % Inhibition (%)
Quick reminder: number only, in %, skip the unit.

Read off the recorded % Inhibition for 198D2 (antibody, V domains shown) VH: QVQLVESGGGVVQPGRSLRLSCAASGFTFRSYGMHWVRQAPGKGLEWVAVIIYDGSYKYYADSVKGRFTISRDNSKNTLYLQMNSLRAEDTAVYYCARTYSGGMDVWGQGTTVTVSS VL: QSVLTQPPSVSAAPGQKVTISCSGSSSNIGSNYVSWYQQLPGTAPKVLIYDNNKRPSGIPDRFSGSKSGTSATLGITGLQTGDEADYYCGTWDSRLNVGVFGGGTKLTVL
99

Name the recorded % Inhibition of the item 198G3 (antibody, V domains shown) VH: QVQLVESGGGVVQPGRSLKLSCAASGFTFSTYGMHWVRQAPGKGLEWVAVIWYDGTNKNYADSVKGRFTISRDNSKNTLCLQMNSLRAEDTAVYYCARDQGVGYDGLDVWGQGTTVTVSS VL: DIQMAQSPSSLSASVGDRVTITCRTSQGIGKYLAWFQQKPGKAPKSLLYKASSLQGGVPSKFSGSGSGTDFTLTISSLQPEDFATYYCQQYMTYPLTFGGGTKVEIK in your answer.
99
